Target: EGFR (Homo sapiens (Human), UniProt P00533)
Sequence (P00533 25-1210): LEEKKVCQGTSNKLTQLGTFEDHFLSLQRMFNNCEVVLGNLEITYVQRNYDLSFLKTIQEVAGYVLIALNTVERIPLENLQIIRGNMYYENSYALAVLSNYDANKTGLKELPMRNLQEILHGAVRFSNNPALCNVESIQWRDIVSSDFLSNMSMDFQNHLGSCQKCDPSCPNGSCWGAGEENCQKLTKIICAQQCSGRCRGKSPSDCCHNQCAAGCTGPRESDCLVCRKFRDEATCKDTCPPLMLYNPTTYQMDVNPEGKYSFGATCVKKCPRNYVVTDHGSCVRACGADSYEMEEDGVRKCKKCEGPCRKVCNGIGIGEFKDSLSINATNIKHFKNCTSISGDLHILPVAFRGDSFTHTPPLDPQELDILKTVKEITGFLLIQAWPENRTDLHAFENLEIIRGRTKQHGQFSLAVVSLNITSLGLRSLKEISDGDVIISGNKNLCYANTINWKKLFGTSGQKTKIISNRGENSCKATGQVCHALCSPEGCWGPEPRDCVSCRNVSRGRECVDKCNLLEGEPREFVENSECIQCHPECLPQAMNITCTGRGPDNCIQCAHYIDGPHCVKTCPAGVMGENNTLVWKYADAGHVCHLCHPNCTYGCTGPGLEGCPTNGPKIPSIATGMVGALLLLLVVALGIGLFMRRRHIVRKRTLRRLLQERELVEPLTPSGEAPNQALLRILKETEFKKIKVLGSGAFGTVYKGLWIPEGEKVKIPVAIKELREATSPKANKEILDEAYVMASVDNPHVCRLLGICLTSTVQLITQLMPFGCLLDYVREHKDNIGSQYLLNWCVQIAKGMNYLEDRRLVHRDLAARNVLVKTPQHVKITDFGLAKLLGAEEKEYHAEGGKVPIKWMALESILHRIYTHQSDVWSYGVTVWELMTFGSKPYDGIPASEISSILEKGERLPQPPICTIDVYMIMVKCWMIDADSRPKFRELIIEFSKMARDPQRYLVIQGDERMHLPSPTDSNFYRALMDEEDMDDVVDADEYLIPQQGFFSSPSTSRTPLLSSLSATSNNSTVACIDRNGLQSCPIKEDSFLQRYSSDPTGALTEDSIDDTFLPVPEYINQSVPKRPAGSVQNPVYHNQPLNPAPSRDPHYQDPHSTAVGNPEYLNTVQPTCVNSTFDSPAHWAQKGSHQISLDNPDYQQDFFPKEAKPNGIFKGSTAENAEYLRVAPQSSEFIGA
This section presents compounds with their documented IC50 values.

Sample answers from the record:
[[record]]
compound = "Cc1c(Oc2ccc3c(c2)ncn3C)ccc(Nc2ncnc3cnc(N4CC[C@](C)(O)C4)nc23)c1F"
recorded_result = "≥ 10 µM"

[[record]]
compound = "Clc1cc(Nc2ncnc3cnc(N4CCN5CCOC[C@@H]5C4)nc23)ccc1Oc1ccn2ncnc2c1"
recorded_result = "≥ 10 µM"

[[record]]
compound = "Cc1cc(Nc2ncnc3cnc(N4CC5CC(C5)C4)nc23)ccc1Oc1ccc2c(c1)ncn2C"
recorded_result = "≥ 10 µM"


Quick note, IC50 for Cc1cc(Nc2ncnc3cnc(N4C[C@@H]5C[C@H]4C[C@@H]5O)nc23)ccc1Oc1ccc2c(c1)ncn2C landed at 6.84 µM

* * *

Biological target: ErbB2 with Exon 20 YVMA insertion (HER2-YVMA) (Homo sapiens (Human), UniProt P04626, INS775YVMA)
Sequence (P04626 other isoform, or with tags, fused parts or gaps ins YVMA behind 775): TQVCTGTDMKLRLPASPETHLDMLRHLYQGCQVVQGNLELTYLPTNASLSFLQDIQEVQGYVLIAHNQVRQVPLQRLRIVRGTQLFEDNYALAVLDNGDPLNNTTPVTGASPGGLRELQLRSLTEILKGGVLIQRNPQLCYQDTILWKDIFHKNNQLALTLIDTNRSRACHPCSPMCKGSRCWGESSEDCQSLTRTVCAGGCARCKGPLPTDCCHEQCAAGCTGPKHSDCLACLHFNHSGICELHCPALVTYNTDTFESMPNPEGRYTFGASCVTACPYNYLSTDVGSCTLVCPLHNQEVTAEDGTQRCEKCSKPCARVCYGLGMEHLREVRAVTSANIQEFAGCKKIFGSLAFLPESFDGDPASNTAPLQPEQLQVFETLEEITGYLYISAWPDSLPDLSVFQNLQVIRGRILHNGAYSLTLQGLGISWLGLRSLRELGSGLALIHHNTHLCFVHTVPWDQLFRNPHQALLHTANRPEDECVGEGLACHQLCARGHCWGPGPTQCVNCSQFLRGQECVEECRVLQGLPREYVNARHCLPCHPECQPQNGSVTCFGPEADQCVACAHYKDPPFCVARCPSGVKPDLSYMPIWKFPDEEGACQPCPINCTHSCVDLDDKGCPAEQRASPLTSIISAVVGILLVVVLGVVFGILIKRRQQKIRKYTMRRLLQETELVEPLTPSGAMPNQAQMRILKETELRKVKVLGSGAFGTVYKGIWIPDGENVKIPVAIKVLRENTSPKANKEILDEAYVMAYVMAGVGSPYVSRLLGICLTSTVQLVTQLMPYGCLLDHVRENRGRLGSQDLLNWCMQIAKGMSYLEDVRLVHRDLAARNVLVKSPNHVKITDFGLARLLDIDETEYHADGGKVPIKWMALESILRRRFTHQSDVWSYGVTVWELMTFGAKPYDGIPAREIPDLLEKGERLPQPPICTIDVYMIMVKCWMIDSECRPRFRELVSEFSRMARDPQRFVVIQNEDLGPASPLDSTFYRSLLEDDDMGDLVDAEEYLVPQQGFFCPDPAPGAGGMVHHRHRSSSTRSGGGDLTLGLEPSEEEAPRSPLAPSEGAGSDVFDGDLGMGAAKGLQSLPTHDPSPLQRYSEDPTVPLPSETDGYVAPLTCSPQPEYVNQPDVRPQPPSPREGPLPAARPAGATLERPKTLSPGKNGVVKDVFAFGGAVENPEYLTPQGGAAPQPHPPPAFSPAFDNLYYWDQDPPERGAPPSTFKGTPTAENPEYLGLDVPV
Experiment: Cellular phosphorylation assay, constitutive ErbB2 phosphorylation (Y1196) in engineered NIH 3T3 cells, Assay 4
This section presents compounds with their documented pIC50 values.
The meaning of pIC50 here: minus log10 of the concentration in molar units.

Sample answers from the record:
[[record]]
compound = "Cc1cc(Nc2ncnc3cnc(N4CC[C@@]45CCOC5)nc23)ccc1Oc1ccc2c(c1)ncn2C (single isomer, unassigned) [Example 93a]"
quantity_name = "pIC50"
recorded_result = 7.69

[[record]]
compound = "CCN(CC(C)(C)O)c1ncc2ncnc(Nc3ccc(Oc4ccc5c(c4)ncn5C)c(C)c3)c2n1 [Example 478]"
quantity_name = "pIC50"
recorded_result = 6.96

[[record]]
compound = "CON(C)c1ncc2ncnc(Nc3ccc(Oc4ccc5c(c4)ncn5C)c(C)c3)c2n1 [Example 22]"
quantity_name = "pIC50"
recorded_result = 7.89


Please look at the following compound next.
Quick note, pIC50 for CN(CC1(O)CCC1)c1ncc2ncnc(Nc3ccc(Oc4ccn5ncnc5c4)c(Cl)c3)c2n1 [Example 329] landed at 7.07

* * *

This section presents compounds with their documented IC50 values.
Target: ErbB2 with Exon 20 YVMA insertion (HER2-YVMA) (Homo sapiens (Human), UniProt P04626, INS775YVMA)
Assay: Cellular phosphorylation assay, constitutive ErbB2 phosphorylation (Y1196) in engineered NIH 3T3 cells, Assay 4
Procedure: Serially diluted compounds were added to the plates for 1 hour at 37° C./5% CO2. EGFR WT cells were stimulated with 100 ng/ml rEGF for an additional 10 minutes at 37° C./5% CO2. After compound incubation, medium was removed from the cells, which were then fixed in 3.7% formaldehyde in PBS at room temperature for 20 minutes. […] Cells were then washed and analyzed for fluorescence at both wavelengths using the Odyssey Infrared Imaging System (LI-COR Biosciences). […]
Express your answer in nM, writing the number without its unit.

[[record]]
compound = "Cc1c(Oc2ccc3c(c2)ncn3C)ccc(Nc2ncnc3cnc(N4CC[C@@H](O)C4)nc23)c1F"
recorded_result = 79.9

[[record]]
compound = "Cc1cc(Nc2ncnc3cnc(N4CCN[C@@H](C)C4)nc23)ccc1Oc1ccc2c(c1)ncn2C"
recorded_result = 13.5

[[record]]
compound = "N#CC[C@H]1CCN(c2ncc3ncnc(Nc4ccc(Oc5ccn6ncnc6c5)c(Cl)c4)c3n2)C1"
recorded_result = 63.6

[[record]]
compound = "Cc1cc(Nc2ncnc3cnc(N4CCO[C@@H]5C[C@@H]54)nc23)ccc1Oc1ccc2c(c1)ncn2C"
recorded_result = 17.9

[[record]]
compound = "Cc1cc(Nc2ncnc3cnc(N4CC[C@](C)(O)C4)nc23)ccc1Oc1ccc2c(c1)ncn2C"
recorded_result = 28.2


Quick note, IC50 for Cc1cc(Nc2ncnc3cnc(O[C@H]4CCN(C)C[C@H]4F)nc23)ccc1Oc1ccc2c(c1)ncn2C landed at 81.4

Quick note, IC50 for Cc1cc(Nc2ncnc3cnc(NCC4(O)COC4)nc23)ccc1Oc1ccc2c(c1)ncn2C landed at 26.3

Quick note, IC50 for CC1(O)CCN(c2ncc3ncnc(Nc4ccc(Oc5ccn6ncnc6c5)c(Cl)c4)c3n2)CC1 landed at 34.7

Quick note, IC50 for CC1(C)CN(c2ncc3ncnc(Nc4ccc(Oc5ccn6ncnc6c5)c(Cl)c4)c3n2)CCO1 landed at 197

Quick note, IC50 for Cc1cc(Nc2ncnc3cnc(O[C@H]4CN(C)CC[C@@H]4F)nc23)ccc1Oc1ccc2c(c1)ncn2C landed at 68.2
